viability, T/C by entry:
Test system: 138582-337-R-J1-PDC complex spheroid viability;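 note: spheroids exposed to agents for 7 days; 100% = DMSO vehicle control viability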
Experiment: Anticancer human tumor 138582-337-R-J1-PDC patient-derived Merkel cell tumor cell line growth inhibition
Conditions: second compound 1 µM; first compound 0.00949 µM; stronger effect = lower value

>  <molecule>
CCc1c2c(nc3ccc(O)cc13)-c1cc3c(c(=O)n1C2)COC(=O)[C@]3(O)CC + NC1CCC(NC2CC2c2ccccc2)CC1

>  <unit.string>
%

>  <viability, T/C>
51.5

$$$$
>  <molecule>
O=C(C=Cc1cccc(S(=O)(=O)Nc2ccccc2)c1)NO + NC1CC1c1ccc(-c2cccc(O)c2)cc1

>  <unit.string>
%

>  <viability, T/C>
44.8

$$$$
>  <molecule>
COc1cc(C2c3cc4c(cc3C(OC3OC5COC(C)OC5C(O)C3O)C3COC(=O)C23)OCO4)cc(OC)c1O (centres undefined) + NC1CCC(NC2CC2c2ccccc2)CC1

>  <unit.string>
%

>  <viability, T/C>
90.8

$$$$
>  <molecule>
O=C(C=Cc1cccc(S(=O)(=O)Nc2ccccc2)c1)NO + NC1CCC(NC2CC2c2ccccc2)CC1

>  <unit.string>
%

>  <viability, T/C>
85.3

$$$$
